Sourced from patent US20260015350A1

Biological target: KRas^G12D (Homo sapiens, UniProt P01116, G12D)
Construct: Biotinylated KRas (corresponding to amino acids 1-169, produced at Accelegan Inc.); biotin (biotinylated); purchased Accelegan Inc
Sequence (P01116 1-169 isoform P01116-2 G12D): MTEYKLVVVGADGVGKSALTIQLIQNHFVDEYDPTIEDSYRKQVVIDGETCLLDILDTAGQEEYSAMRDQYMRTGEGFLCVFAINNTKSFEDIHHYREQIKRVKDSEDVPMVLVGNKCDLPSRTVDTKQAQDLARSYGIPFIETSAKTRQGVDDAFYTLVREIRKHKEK
Experiment: KRas binding assay (TR-FRET tracer displacement), KRas G12D
# Lookup of reported IC50 keyed by entry

Examples with their reported IC50 follow.
compound: CCc1c(F)ccc2cc(O)cc(-c3ncc4c(N5CCCn6nc(C(=O)N(C)CCO)cc6C5)nc(OC[C@@]56CCCN5C[C@H](F)C6)nc4c3F)c12
IC50: 124 nM

compound: O=C1NCC2(CCCN(c3nc(OCC45CCCN4CCC5)nc4c(F)c(-c5cc(O)cc(Cl)c5C5CC5)ncc34)C2)N1 (stereo not shown)
IC50: < 2 nM

compound: CCc1cccc2cccc(-c3ncc4c(C5CCCCC5)nc(OCC56CCCN5CCC6)nc4c3F)c12
IC50: > 100000 nM

# evaluate next
Input line: Give the reported IC50 for CCc1c(F)ccc2cc(O)cc(-c3ncc4c(N5CC6CCC(C5)C6CCO)nc(OC[C@@]56CCCN5C[C@H](F)C6)nc4c3F)c12 (stereo partly shown) (system: KRas^G12D (Homo sapiens, UniProt P01116, G12D)).
Output line: 140 nM

====

Target: KRas^G12V (Homo sapiens, UniProt P01116, G12V)
Construct: Biotinylated KRas (corresponding to amino acids 1-169, produced at Accelegan Inc.); biotin (biotinylated); purchased Accelegan Inc
Sequence (P01116 1-169 isoform P01116-2 G12V): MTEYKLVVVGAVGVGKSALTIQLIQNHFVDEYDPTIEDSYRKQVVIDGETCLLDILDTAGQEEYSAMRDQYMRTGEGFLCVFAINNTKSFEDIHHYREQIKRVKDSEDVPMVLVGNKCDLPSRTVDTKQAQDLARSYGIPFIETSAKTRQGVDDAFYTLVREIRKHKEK
Assay: KRas binding assay (TR-FRET tracer displacement), KRas G12V
metric: IC50 (nM)
Reply with just the number (in nM).

Before answering, review these 3 worked examples.
compound: CCc1c(F)ccc2cc(O)cc(-c3ncc4c(N5CCC[C@]6(C5)C[C@@H](O)C6)nc(OC[C@@]56CCCN5[C@H](COC(=O)N(C)C)CC6)nc4c3F)c12
experimentalSystem: KRas^G12V (Homo sapiens, UniProt P01116, G12V)
unitOfMeasure: nM
IC50: 2

compound: Cc1cc2sncc2c(-c2ncc3c(N4CCC[C@@](C)(O)C4)nc(OCC45CCCN4CCC5)nc3c2F)c1C
experimentalSystem: KRas^G12V (Homo sapiens, UniProt P01116, G12V)
unitOfMeasure: nM
IC50: 52000

compound: C[C@@H]1C[C@@H]1c1c(Cl)cc2[nH]ncc2c1-c1ncc2c(N3CCC[C@]4(C3)NC(=O)NC4=O)nc(OCC34CCCN3CCC4)nc2c1F (atropisomer, axis not shown)
experimentalSystem: KRas^G12V (Homo sapiens, UniProt P01116, G12V)
unitOfMeasure: nM
IC50: 3

Here's the next entry for you.
Input line: // returns reported IC50 for input `Cc1c(O)cc2ccccc2c1-c1ncc2c(N3C[C@@H]4C[C@H](C3)[C@H](O)C4)nc(OC[C@@]34CCCN3C[C@H](F)C4)nc2c1F`
Output line: 110

====

Target: KRas^G12R (Homo sapiens, UniProt P01116, G12R)
Construct: Biotinylated KRas (corresponding to amino acids 1-169, produced at Accelegan Inc.); biotin (biotinylated); purchased Accelegan Inc
Sequence (P01116 1-169 isoform P01116-2 G12R): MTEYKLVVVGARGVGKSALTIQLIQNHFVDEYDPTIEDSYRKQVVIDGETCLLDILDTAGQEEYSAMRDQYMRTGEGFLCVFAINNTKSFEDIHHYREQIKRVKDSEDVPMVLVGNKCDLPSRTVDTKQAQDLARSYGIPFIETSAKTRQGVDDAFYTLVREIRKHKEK
Experiment: KRas binding assay (TR-FRET tracer displacement), KRas G12R
The label Met is reserved for IC50 strictly under 20 nM; Not met covers values equal to or above it.

molecule: CCc1c(F)ccc2cc(O)cc(-c3ncc4c(N5CCN6C[C@@H](O)C[C@H]6C5)nc(OC[C@@]56CCCN5C[C@H](F)C6)nc4c3F)c12
qualitativeLabel: Not met

molecule: CCc1c(F)ccc2cc(O)cc(-c3ncc4c(N5CCCC6(CCCCO6)C5)nc(OC[C@@]56CCCN5C[C@H](F)C6)nc4c3F)c12 (stereo partly drawn)
qualitativeLabel: Not met

molecule: Cc1cc2[nH]ccc2c(-c2ncc3c(N4CCC[C@@](C)(O)C4)nc(OCC45CCCN4CCC5)nc3c2F)c1C
qualitativeLabel: Not met

molecule: Oc1cc(-c2ncc3c(N4C[C@@H]5C[C@H](C4)[C@H](O)C5)nc(OC[C@@]45CCCN4C[C@H](F)C5)nc3c2F)c2cccc(F)c2c1
qualitativeLabel: Met

molecule: CN(C)C(=O)c1cc2n(n1)CCCN(c1nc(OCC34CCCN3CCC4)nc3c(F)c(-c4c(C5CC5)c(Cl)cc5[nH]ncc45)ncc13)C2
qualitativeLabel: Met

Input line: Decide: IC50 of CCc1c(F)ccc2cc(O)cc(-c3ncc4c(N5CCC[S+]([O-])CC5)nc(OC[C@@]56CCCN5C[C@H](F)C6)nc4c3F)c12 (stereo partly drawn) strictly below 20 nM?
Output line: Met

Input line: And the next one, CCc1c(F)ccc2cc(O)cc(-c3ncc4c(N5CCCCC(P(C)(C)=O)C5)nc(OC[C@@]56CCCN5C[C@H](F)C6)nc4c3F)c12 (stereo partly drawn) ?
Output line: Not met

Input line: Continue with CCc1c(F)ccc2cc(O)cc(-c3ncc4c(N5CCCC(Cn6cccn6)C5)nc(OC[C@@]56CCCN5C[C@H](F)C6)nc4c3F)c12 (stereo partly drawn)
Output line: Not met

Input line: And `Oc1cc(-c2ncc3c(N4C[C@@H]5C[C@H](C4)[C@H](O)C5)nc(OC[C@@]45CCCN4C[C@H](F)C5)nc3c2F)c2ccc(F)cc2c1` ?
Output line: Met

Input line: Consider next the molecule `Cc1c(O)cc(-c2ncc3c(N4C[C@@H]5C[C@H](C4)[C@H](O)C5)nc(OC[C@@]45CCCN4C[C@H](F)C5)nc3c2F)c2ccccc12` in the same way.
Output line: Not met

Input line: Also check `CCc1c(F)ccc2cc(O)cc(-c3ncc4c(N5CCC[C@@](C)(O)C5)nc(OC[C@@]56CCCN5C/C(=C\F)C6)nc4c3F)c12`
Output line: Met

Input line: // next record CCc1c(F)ccc2cc(O)cc(-c3ncc4c(N5CCCC6(CC(=O)N6)C5)nc(OC[C@]56CCCN5[C@H](COC(=O)N(C)C)CC6)nc4c3F)c12 (stereo partly drawn)
Output line: Met
